Biological target: Cholinesterase (Equus caballus, UniProt P81908)
Sequence (P81908 whole entry): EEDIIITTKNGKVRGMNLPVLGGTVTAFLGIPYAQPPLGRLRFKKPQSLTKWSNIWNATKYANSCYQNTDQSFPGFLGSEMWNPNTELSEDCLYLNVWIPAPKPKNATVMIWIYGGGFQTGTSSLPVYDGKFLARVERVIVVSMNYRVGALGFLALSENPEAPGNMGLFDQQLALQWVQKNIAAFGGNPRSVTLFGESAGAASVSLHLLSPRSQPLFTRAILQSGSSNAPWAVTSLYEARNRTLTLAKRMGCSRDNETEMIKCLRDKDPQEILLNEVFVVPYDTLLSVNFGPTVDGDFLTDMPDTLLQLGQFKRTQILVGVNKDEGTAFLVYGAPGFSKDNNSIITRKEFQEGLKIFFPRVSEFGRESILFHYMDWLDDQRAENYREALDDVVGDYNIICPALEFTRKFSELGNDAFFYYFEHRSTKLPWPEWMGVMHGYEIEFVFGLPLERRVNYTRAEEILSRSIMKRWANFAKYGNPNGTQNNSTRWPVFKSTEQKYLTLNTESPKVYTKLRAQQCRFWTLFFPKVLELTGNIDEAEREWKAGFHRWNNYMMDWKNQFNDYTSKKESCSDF
Assay: Inhibition of BCHE in Equus caballus (horse) serum using butyrylthiocholine iodide as substrate preincubated with enzyme for 15 min prior to substrate addition measured every 45 s by colorimetric Ellman's method

Structure | Scale Unit | Relational Operator | IC50
COc1ccc(NCc2ccc(C)cc2)cc1 | µM | > | 100
Cc1ccc(N(Cc2ccccc2)C(=O)/C=C/C(=O)N(Cc2ccccc2)c2ccc(C)cc2)cc1 | µM | = | 26.3
Cc1ccc(CN(C(=O)/C=C/C(=O)N(Cc2ccc(C)cc2)c2ccc(Cl)cc2)c2ccc(Cl)cc2)cc1 | µM | = | 45.6
Clc1ccc(NCc2ccccc2)cc1 | µM | > | 100
Cc1ccc(CNc2ccc(I)cc2)cc1 | µM | > | 100
Cc1ccc(CNc2ccc(Br)cc2)cc1 | µM | > | 100
CCOc1ccc(N(Cc2ccccc2)C(=O)/C=C/C(=O)N(Cc2ccccc2)c2ccc(OCC)cc2)cc1 | µM | = | 44
Cc1ccc(CN(C(=O)/C=C/C(=O)N(Cc2ccc(C)cc2)c2ccc(C)cc2)c2ccc(C)cc2)cc1 | µM | = | 54.8
Brc1ccc(NCc2ccccc2)cc1 | µM | > | 100
O=C(/C=C/C(=O)N(Cc1ccccc1)c1ccc(Cl)cc1)N(Cc1ccccc1)c1ccc(Cl)cc1 | µM | = | 57.7
Fc1ccc(NCc2ccccc2)cc1 | µM | > | 100
Cc1ccc(NCc2ccccc2)cc1 | µM | > | 100
COc1ccc(N(Cc2ccc(C)cc2)C(=O)/C=C/C(=O)N(Cc2ccc(C)cc2)c2ccc(OC)cc2)cc1 | µM | = | 41
Cc1ccc(CN(C(=O)/C=C/C(=O)N(Cc2ccc(C)cc2)c2ccc(F)cc2)c2ccc(F)cc2)cc1 | µM | = | 56.6
CCc1ccc(NCc2ccc(C)cc2)cc1 | µM | > | 100
O=C(/C=C/C(=O)N(Cc1ccccc1)c1ccccc1)N(Cc1ccccc1)c1ccccc1 | µM | = | 52.4
O=C(/C=C/C(=O)N(Cc1ccccc1)c1ccc(I)cc1)N(Cc1ccccc1)c1ccc(I)cc1 | µM | = | 23.3
Cc1ccc(CNc2ccc(F)cc2)cc1 | µM | > | 100
Cc1ccc(CN(C(=O)/C=C/C(=O)N(Cc2ccc(C)cc2)c2ccc(Br)cc2)c2ccc(Br)cc2)cc1 | µM | = | 23.1
O=C(/C=C/C(=O)N(Cc1ccccc1)c1ccc(F)cc1)N(Cc1ccccc1)c1ccc(F)cc1 | µM | = | 89.5
c1ccc(CNc2ccccc2)cc1 | µM | > | 100
